protein stability index: recorded values
method.description: protein stability index of a GFP-peptide fusion (yeast GPS) (PSI 1-4); higher = more stable; sorted into four equal gates, so the index is relative within each strain
particulars: doa10∆
endpoint.name: protein stability index

NNRQLPYLVANVVEVMD [RPT5] : 2.4
QQQTNALNGIDINTVNT [GRR1] : 3.31
RFKVVKVSGVSLLALWK [RPS23A] : 2.55
KHVGFELLSMGNAKESK [SRP72] : 2.88
FIYKKVLKEKDVPAYNV [SRB8] : 2.99
VEKGVNPTKSKEILDNI [ECM29] : 3.26
NAQDIDHFLSMCQNPMQ [FAS1] : 3.51
EEREGTDQSTEEEKSVD [CSL4] : 3.16
GLSIHPTQITQYTQRLS [SRP68] : 2.09
ELNVEKLNTFNLQTFTH [SRP72] : 2.48
TCVTCHWNLPGERIFNK [SIR2] : 2.87
VKFLVYQGVYSMGSILL [YML031W/NDC1] : 1.65
YQRPMQVQGQQQAQSFV [SSN3] : 2.42
RMERIKDHLLLEEEFVS [RPT2] : 2.24
FSYQEVEFKLPKELVPS [CDC53] : 2.13

* * *

method.description: protein stability index of a GFP-peptide fusion (yeast GPS) (PSI 1-4); higher = more stable; sorted into four equal gates, so the index is relative within each strain
particulars: san1∆
endpoint.name: protein stability index

GRICRPLIIVSDGQSRV [RET1] : 1.75
KGPRFRKLTSQEINDRL [PRE8] : 3.06
SHGNPVVDFLKRNGSTL [FAS1] : 3.1
GGLKNGVLYQGNIQISE [DIS3] : 2.9
NKSFIVDQGQIYRDRST [ITC1] : 3.32
SNGEFIPHIFYSLHQIR [CSE2] : 2.12
ELSDNEENFEATRTLVA [YCG1] : 2.89
ISPSAPSKDSFTKYKPA [YAR002W/NUP60] : 2.69
INQINEAHPTKVKNFGV [RPL20A] : 3.12
KRAFTKKVASANATAAE [RPL16A] : 2.82
LEEKILAKKTHKQELQD [SMC4] : 2.88
TSVQEKELMLQSKKLIE [YIL149C/MLP2] : 2.84
SLIKETNQLVLLQKMLN [YML103C/NUP188] : 1.06
PSYTHVLISKLSCEKIT [RRI1] : 2.12

* * *

Recorded protein stability index for the following sequences
method.description: protein stability index of a GFP-peptide fusion (yeast GPS) (PSI 1-4); higher = more stable; sorted into four equal gates, so the index is relative within each strain
particulars: san1∆
endpoint.name: protein stability index

NILLRERDSYKLLASTE [YIL149C/MLP2] : 2.49
KSFYSTATGAASKSGKL [CYT1] : 2.87
ADKIVDEFPELKEPVED [NUT2] : 3.23
DPESRTQSYNNQNTLKE [POP1] : 2.88
QNAADLQQICRVRNKDI [RPL9A] : 2.59
SPTENGVFDPASYAKYL [RPL22A] : 3.08
KYMVKGGLSGEESIKIY [UBP6] : 2.36
IKSIIEQRKQKLSKILP [SMC3] : 2.52
PITASTSRVFAKIISKA [YML103C/NUP188] : 2.53
DTVEEKKEEKLNIGKNF [SIR4] : 3.34
KAKYNTPKYRLVVRFTN [RPL5] : 1.24
PSQGVHYKVPTDTSTTA [MED6] : 2.37
ISAKDMGQGLCNNINKG [BRR2] : 3.12
KVSSAEYYAKKRAFTKK [RPL16A] : 2.98
QVLLDEEYKQLVKDRKF [RPO21] : 3.15
EYSDNFPVSLSQPSKKS [SIR4] : 2.98
AAESKKYRQTKLSKEER [RPL5] : 3.05
EQHHINNLKNSGNSANN [GAL11] : 2.39
NFGGGNNTTPSSTGNAN [YJL041W/NSP1] : 1.73
SQRAQVVTMSVKSVNDP [RPC37] : 1.89
KRTIRIKTQQHILPEVP [TAF14] : 2.2
LQMYSKIRRHPNIMLIF [FAS1] : 1.97
THHTDIIPIVDYAQLDH [ARP9] : 2.66
GENDDDTLDGDLMDDMS [RPN3] : 2.11
VEKNEIGKMYDEYLGSH [NNF1] : 3.28
HLSHPGTNKDMILKLVC [ECM29] : 1.32
AIKDKLEQDLHFENAKV [YIL149C/MLP2] : 3.35
EDLKNFIFQIIEITNSN [SRB8] : 2.23
QSQPQEKFSEKMLKIWT [ECM29] : 2.9
AAASLPSKKLKTEDGFV [RPC82] : 2.84

Where do these numbers come from? They come from the supplement of paper PMC9732359.
